# target_entity: Gal-3 CRD (residues 108–250) (Homo sapiens)
# Construct: its Gal-3 CRD (residues 108–250); made in house
# Sequence (P17931 108-250): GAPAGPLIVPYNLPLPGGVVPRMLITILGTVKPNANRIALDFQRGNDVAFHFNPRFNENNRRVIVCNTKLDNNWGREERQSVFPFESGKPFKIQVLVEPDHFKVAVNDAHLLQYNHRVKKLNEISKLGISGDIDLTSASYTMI
# experiment_notes: 1H-15N HSQC NMR titration of 15N-labeled Gal-3 CRD
# Format: binding
# condition_set: fast exchange; from chemical shifts vs ligand concentration; Gal-3 CRD 20 μM, pH 6.9, 30 °C; read-out: KD
readout_name: Kd (µM)

1) CC(=O)N[C@H]1C(O)O[C@H](CO)[C@@H](O[C@@H]2O[C@H](CO)[C@H](O)[C@H](O)[C@H]2O)[C@@H]1O (stereo partly shown) [LacNAc, N-acetyllactosamine, reference compound]	380
